For each of the compounds below, state its GI50.
# System: TK-10
# assay.summary: NCI tumour cell line growth inhibition, 48 h
Active and inactive are the calls of the source. Cut-off read from the data, not from the text of the source: active = GI50 up to about 1.1 µM and inactive = higher.

compound	system.under.test	GI50
COc1ccc2oc(C(=O)O)c3c2c1CCC3CCC(=O)O (centres undefined)	TK-10	> 100 µM (inactive)
C=CCOC1CC(n2cnc3c(N)ncnc32)OC1CO (centres undefined)	TK-10	> 100 µM (inactive)
CC(=O)O[C@H]1CC2C(C3CCC(C(C)CCC(N)=O)[C@]31C)[C@H](OC(C)=O)C[C@@H]1CC3(CC[C@]21C)OOC1(CC[C@]2(C)C4C[C@H](OC(C)=O)[C@]5(C)C(C(C)CCC(N)=O)CCC5C4[C@H](OC(C)=O)C[C@@H]2C1)OO3 (some centres undefined)	TK-10	1.8 µM (inactive)

**Q:** GI50 for CC1(c2cccc(Cl)c2)CC(c2cccc(Cl)c2)=C(C#N)C(=C(C#N)C#N)N1 (centres undefined) ?
**A:** 17.7 µM (inactive)
